assay: qHTS Assay Multiplex Screening to Identify Dual Action Probes in a Cell Model of Huntington: Cytoprotection (Protease relase); conditions: PC12 HttQ103 cells, Cytotox-Glo protease release, 40 h; series mostly up to 46.1 µM
Inconclusive results are not listed. The source made the active and inactive calls. Calls follow the shape of the dose curve; as a rule, active = well fitted inhibition curve with a large enough effect; inconclusive = small, poorly fitted or top-dose-only effect, or effect the other way; inactive = flat fitted curve, though single readings scatter.
API: response.call in True = active, False = inactive

[ask] Call for entry `COc1cc(Cc2cnc(N)nc2N)cc(OC)c1OC` :
[reply] False

[ask] For CN1C(=O)C2(c3ccccc31)C1CCCC=C1C(C#N)=C(N)C2(C#N)C#N (centres undefined) , which call appears in the assay record?
[reply] False

[ask] Record request — test call for `Cn1nnnc1Sc1ncnc2scc(-c3ccccc3Br)c12`
[reply] True

[ask] Name the outcome recorded for `COc1c(F)c(F)c(C(=O)Nc2ccc3oc(-c4ccncc4)nc3c2)c(F)c1F` in the assay.
[reply] False

[ask] Could you kindly confirm the outcome this assay logged for `N#CCCn1c(Cl)nc2ccccc21` ?
[reply] False

[ask] What did the test return for `COc1ccccc1-c1nnc(Sc2nc([N+](=O)[O-])nn2C)o1` ?
[reply] True

[ask] Hello, I am checking results. What call was entered for `COc1ccc(CNC(=O)CN(C(=O)CCC(=O)Nc2ccccn2)c2ccccc2OC)cc1` ?
[reply] False

[ask] For `CCCCCCCCNc1ncnc2ccccc12` , which call appears in the assay record?
[reply] False

[ask] Just curious, what result did C=C1CCC2[C@](C)(CO)[C@H](O)CC[C@@]2(C)[C@@H]1C/C=C1/C(=O)OC[C@H]1O (some centres undefined) get here?
[reply] False

[ask] Please indicate how the test categorized O=C(NCN1C(=O)C2C3C=CC(C3)C2C1=O)Nc1ccccn1 (centres undefined) .
[reply] False

[ask] What classification did `Cn1nnnc1Sc1ncnc2scc(-c3ccccc3S(C)(=O)=O)c12` end up with in this test?
[reply] False

[ask] Recorded call for `O=C(CN1CCN(c2ccccn2)CC1)NC1CCCC1` ?
[reply] False

[ask] What outcome does the record of this test show for `COc1cccc(-c2csc3ncnc(Sc4nnnn4C)c23)c1` ?
[reply] True

[ask] Write down the call the test reported for this molecule. Item: `Cn1nnnc1Sc1ncnc2scc(-c3ccccc3Cl)c12`
[reply] True

[ask] GET /call?item= `Cc1cc(C)n(S(=O)(=O)/C=C/c2ccccc2)n1` returns the recorded outcome of this test.
[reply] False

[ask] Query: recorded result category for `Cc1cc(C)nc(Sc2nc(C)nc3c2oc2ccccc23)n1` in this test
[reply] False

[ask] Hello, I am checking results. What call was entered for `COc1ccc2cc3cc(C(=O)N4CCN(c5ccccc5)CC4)oc3nc2c1` ?
[reply] True

[ask] Status in this test for `Cc1ccccc1N=C(N)Nc1ccccc1C` ?
[reply] False

[ask] Kindly provide the recorded test outcome for the following molecule: CN1C(=O)CC(Sc2ncccc2C(=O)O)C1=O (centres undefined)
[reply] False

[ask] Returns: the outcome recorded for `Cc1ccc(-n2ncc(Br)c(Br)c2=O)cc1` in this assay.
[reply] True

[ask] I'd appreciate the recorded outcome for `C=CCC(=O)OCCCCCCOc1ccc(C(=O)O)cc1` from this test.
[reply] True

[ask] Identify the outcome logged in this assay for the molecule shown: `Cn1nnnc1Sc1ncnc2scc(-c3cccc([N+](=O)[O-])c3)c12`
[reply] True

[ask] Write down the call the test reported for this molecule. Item: `COc1ccc(NC(=O)c2sc(SC)nc2N)cc1`
[reply] True

[ask] Please let me know the test result on file for `Cn1nnnc1Sc1ncnc2scc(-c3ccccc3C#N)c12` .
[reply] True
